- target_of_assay: Cytochrome P450 2D6 (Homo sapiens) (UniProt P10635)
- Sequence (P10635 whole entry, looked up): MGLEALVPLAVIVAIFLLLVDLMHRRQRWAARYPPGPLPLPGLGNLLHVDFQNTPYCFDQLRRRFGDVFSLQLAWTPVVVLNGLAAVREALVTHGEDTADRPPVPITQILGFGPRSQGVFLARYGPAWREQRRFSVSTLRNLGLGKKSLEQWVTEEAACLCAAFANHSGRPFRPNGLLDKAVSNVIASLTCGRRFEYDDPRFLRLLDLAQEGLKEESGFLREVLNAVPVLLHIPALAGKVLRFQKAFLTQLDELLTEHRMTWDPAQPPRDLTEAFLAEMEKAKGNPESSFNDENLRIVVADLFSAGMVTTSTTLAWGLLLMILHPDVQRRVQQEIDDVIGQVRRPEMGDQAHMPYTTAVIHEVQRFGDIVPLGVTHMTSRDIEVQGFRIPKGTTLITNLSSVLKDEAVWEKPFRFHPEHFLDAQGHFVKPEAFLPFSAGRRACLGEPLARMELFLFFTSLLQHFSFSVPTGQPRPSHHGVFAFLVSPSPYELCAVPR
- protocol: Cytochrome P450 Family 2 Subfamily D Member 6 (CYP2D6) small molecule antagonists: luciferase reporter qHTS assay (AID 1671196); note: nearly all actives have a fitted effect of over 50% in size
- conditions_used: P450-Glo CYP2D6 enzyme assay, luciferin luminescence, 1 h; series mostly up to 115 µM
Records with an inconclusive call do not appear. The source made the active and inactive calls. Calls come from the whole dose curve; as a rule, active = well fitted inhibition curve with a large enough effect in the repeat runs; inconclusive = weak or mixed curves; inactive = no such curve, though single readings can be large or run the other way.
Outcomes: 1.0 = active, 0.0 = inactive

compound=CCOC(=O)CBr assigned_category=1.0
compound="COC(=O)c1cncn1C(C)c1ccccc1 (centres undefined)" assigned_category=1.0
compound="CCCC(Cn1cncn1)c1ccc(Cl)cc1Cl (centres undefined)" assigned_category=1.0
compound=c1ccc(CN2CCNCC2)cc1 assigned_category=1.0
compound=CCOC(=O)[C@]1(c2ccccc2)Oc2ccccc2[C@@H]1N assigned_category=1.0
compound=CO/N=C(/C(=O)OC)c1ccccc1COc1ccccc1C assigned_category=0.0
compound=O=S1(=O)OC(c2cc(Br)c(O)c(Br)c2)(c2cc(Br)c(O)c(Br)c2)c2ccccc21 assigned_category=1.0
compound=NC(=O)CI assigned_category=1.0
compound=O=C(CBr)Nc1ccc(Cl)cc1C(=O)c1ccccc1F assigned_category=0.0
compound=Brc1ccccc1 assigned_category=0.0
compound=C/C=C/C=O assigned_category=0.0
compound=CC(c1ccc(O)cc1)(c1ccc(O)cc1)c1ccc(O)cc1 assigned_category=1.0
compound=O=C(CBr)OCc1ccccc1 assigned_category=0.0
compound=O=C(Nc1ccccc1)Nc1ccnc(Cl)c1 assigned_category=1.0

Measured values drawn from PubChem BioAssay (Tox21) for this set.
